- assay-name: yeast display, Sf9 membrane polyspecificity reagent, FACS + sequencing; frameworks hold sequencing errors
property-name: polyreactivity (PSR sort gate)

sequence-entry: QVQLVESGGGLVQAGGSLRLSCAASGSTSDINAMGWYRQAPGKERELVAVITFSGGSTNYADSVKGRFTISRDNAKNTVYLQMNSLKPEDTAVYYCSTSGQLYYSRNFDYWGQGTQVTVSS
polyreactivity (PSR sort gate): low polyreactivity
//
sequence-entry: QVQLVESGGGLVQAGGSLRLSCAASGSTFSTNAMGWYRQAPGKERELVAAISRSGGSTYYADSVKGRFTISRDNAKNTFYLQMNSLKPEDTAVYYCARYSYRGTNVRYDYCGQGTQVTVSS
polyreactivity (PSR sort gate): high polyreactivity
//
sequence-entry: QVQLVESGGGLVQAGGSLRLSCAASGSIFSTNAMGCYIQAPGKERELVAVITGIGGITYYADSVKGRFTISRDNAKNTVYVQMNSLKPEDTAVYYCAADPISEFYWGVKDRYDYWGQGTQVTVST
polyreactivity (PSR sort gate): low polyreactivity
//
sequence-entry: QVQLVDSGGGLVQAGGSLRLSCAASGSTFVYYAMGWYRQAPGKERELVAAISSGGRTYYADSVKGRFTISRDNAKNTVYFQMNSLKPEDTAVYYCATYPRYSKSPGYDSWGQGTQVTVSS
polyreactivity (PSR sort gate): high polyreactivity
//
sequence-entry: QVQLVESGGGLVQAGGSLSISCAASGSIFLAYDMGWYRPAPGKARELVAAITAGTGSTYYADSVKGRFTISRDNAKNTVYLQMTSLKPDDTAVYYCAAELWGGTYGEYEYWGQGTQVTVSS
polyreactivity (PSR sort gate): low polyreactivity

Prompt line: I would be grateful if you could share the reported polyreactivity (PSR sort gate) for `QVQLVESGGGLVQAAGSLRLSCAASGFIFLVYSMGWSRQAPGKARELVAAISASGGRTYYADSVKGRFTISRDNAKNTVYLQMNSLKPEDTAVYYCARLLPTPGKPILDYWGQGTQVTVSS` .
Response line: low polyreactivity

Prompt line: I would be grateful if you could share the reported polyreactivity (PSR sort gate) for `QVQRVESGVGIVQAGGSLRLSSAASGFIFSRYAMGWYRQAPGNERQLVAAIRFSGSITYYADSVKGRFTISRDNAKNTVYLQMNSLKPEDTAVYYCAAPLTFFKRVYYWGQGTQLTVSS` .
Response line: high polyreactivity

Prompt line: I would be grateful if you could share the reported polyreactivity (PSR sort gate) for `QLQLVESGVGLVQAGGSLRLSCAASGSILPVYPMGWYRQAPGKERELVAAISVSGGSTSYADSVKGRFTISRDNAKNTVYLQMNSLKPEDTAVYYCAARYRYSYGYWGQGSQVTVSS` .
Response line: high polyreactivity

Prompt line: I would be grateful if you could share the reported polyreactivity (PSR sort gate) for `QVQLVESGGGLVQAGGSLRLSCAASGRTFKYYAMGWYRQAPGKERELVAAISRRGGRTYYADSVKGRFTISRDNAKNTVYLQMNSLKPEDTAVYYCAAVFETGAGGFYYTLQYDSWGQGTQVTVSS` .
Response line: high polyreactivity

* * *

- assay-name: yeast display, Sf9 membrane polyspecificity reagent, FACS + sequencing; frameworks hold sequencing errors
property-name: polyreactivity (PSR sort gate)

In the examples that follow, each entry is paired with its recorded polyreactivity (PSR sort gate).
sequence-entry: QVQLVESGGGLVQAGGSLRLSCAASGFTFDVYAMGWYRQAPGKERELVAAITGSDGSTYYADSVKGRFTISRDNAKNTVYLQMNSLKPEDTAVYYCNARSRSVVYKYDYWGQGTQVTVSS
polyreactivity (PSR sort gate): low polyreactivity
//
sequence-entry: QVQLVESGGGLVQAGGSLRLSCAASGIFGSYAMGWYRQAPGKERELVAAISSGGSTYYADSVKGRFTISRDNAKNTVYLQMNSLKPEDTAVYYCAKRYGRAYRSYYWGQGTQVTVSS
polyreactivity (PSR sort gate): high polyreactivity
//
sequence-entry: QVQLVESGGGLVQAGGTLRISCAASGSTFLFYAMGWYRQAPGKERELVAAISSSGTSTYYADSVKGRFTISRDNAKNTVYLQMNSLKPEDTACYYCARRGRSLRWKYDYWGQGTQVTVSS
polyreactivity (PSR sort gate): low polyreactivity
//
sequence-entry: QVQLVESGGGLVQAGGSLRLSCAASGFTFGGYAMGWYRQAPGKERELVAAINWSGGSTDYADSVKGRFTISRDIAKNTVYLQMNSLKPEDTAVYYCAAEGQDGRFYWGQGTQVTVSS
polyreactivity (PSR sort gate): low polyreactivity
//
sequence-entry: HVKLVDSGGGLVKAGGSLRLTCAASGITIYTNDMGWSRQARGKERELVAAITTNDGDTYYADSVKGRFTISRDNEKNTVYLQMNSLKPEDNAVYYCAADSGSTSEYEYWGQGTQVTVSS
polyreactivity (PSR sort gate): low polyreactivity

Now for a further sequence.
Prompt line: I would be grateful if you could share the reported polyreactivity (PSR sort gate) for `QVQLVESGGGLVQAGGSLRLSCAASGRTFAQYAMGWYRQAPGKERELVAAISRSGGSTFYADSVKGRFTISRDNAKNTVYLQMNSLKPEDTAVYYCAAYNRQASLDYWGQGTQVTVSS` .
Response line: high polyreactivity
